molecular target: Avi-KRAS G12D (1-169) GppNHp/RAF1 RBD-3xFLAG (52-151) (Homo sapiens, UniProt P01116, G12D); construct: Avi-KRAS G12D (1-169); assay: Raf1-KRAS G12D-GppNHP disruption HTRF assay (Biological Example 1); format: binding; conditions: KRAS G12D-GppNHp/RAF1 RBD HTRF
Sequence (P01116 1-169 isoform P01116-2 G12D): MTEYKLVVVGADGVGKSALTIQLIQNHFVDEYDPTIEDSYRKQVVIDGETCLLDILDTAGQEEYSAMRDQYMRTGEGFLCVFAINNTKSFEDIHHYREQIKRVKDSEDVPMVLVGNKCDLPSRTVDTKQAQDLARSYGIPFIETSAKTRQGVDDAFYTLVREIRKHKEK
experimental-readout: IC50

Consider the reported IC50 for these molecules:
molecule	IC50
CCC(=O)N1CC[C@@H](N(CC)c2nc(OC[C@@]34CCCN3C[C@H](F)C4)nc3c(F)c(-c4ccc(F)c5sc(N)c(C#N)c45)c(Cl)cc23)[C@@H]1C [Compound 417]	100 to 1000 nM
CCN(c1nc(OC[C@@]23CCCN2C[C@H](F)C3)nc2c(F)c(-c3ccc(F)c4sc(N)c(C#N)c34)c(C(F)(F)F)cc12)[C@@H]1CCN(C(C)=O)[C@@H]1C [Compound 407]	100 to 1000 nM
CCN1C[C@@H](N(CC)c2nc(OC[C@@]34CCCN3C[C@H](F)C4)nc3c(F)c(-c4ccc(F)c5sc(N)c(C#N)c45)c(C(F)(F)F)cc23)CC1=O [Compound 529]	< 100 nM
CN1C[C@H](N(C)c2nc(OC[C@@]34CCCN3C[C@H](F)C4)nc3c(F)c(-c4ccc(F)c5sc(N)c(C#N)c45)c(C(F)(F)F)cc23)CC1=O [Compound 285]	100 to 1000 nM

Then there is this molecule:
The molecule identified as CC(=O)N1C[C@H](N(C)c2nc(OC[C@@]34CCCN3C[C@H](F)C4)nc3c(F)c(-c4ccc(F)c5sc(N)c(C#N)c45)c(C(F)(F)F)cc23)C[C@H]1C [Compound 321] registered its IC50 at 100 to 1000 nM
